Below is a list of entries, each paired with its recorded IC50 value.
experimental target: recombinant human thymidylate synthase (hTS) (Homo sapiens, UniProt P04818)
Construct: His tag (N)
Sequence (P04818 whole entry): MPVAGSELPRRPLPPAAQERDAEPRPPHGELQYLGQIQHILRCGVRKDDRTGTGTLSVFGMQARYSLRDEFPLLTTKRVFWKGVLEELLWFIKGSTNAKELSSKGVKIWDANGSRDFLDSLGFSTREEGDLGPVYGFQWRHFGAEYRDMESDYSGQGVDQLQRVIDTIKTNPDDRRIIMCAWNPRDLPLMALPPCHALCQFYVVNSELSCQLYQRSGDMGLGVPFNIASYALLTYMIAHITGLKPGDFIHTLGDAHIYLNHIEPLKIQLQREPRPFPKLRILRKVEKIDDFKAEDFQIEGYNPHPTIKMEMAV
procedure details: cell-free human thymidylate synthase (hTS) inhibition assay
test context: 0.84 μM hTS, 50 μM dUMP, 250 μM mTHF, DHF formation at 340 nm, room temperature, pH 7.5
Give a bare numeral; the unit nM is implied.

Fill in the blank: the reported IC50 of C[C@@H](OP(=O)(O)O)[C@H]1O[C@@H](n2cc(F)c(=O)[nH]c2=O)C[C@@H]1O [Compound 1, 5′(R)-CH3 FdUMP] is ____.
1210

// same read-out, input: O=c1[nH]c(=O)n([C@H]2C[C@H](O)[C@@H]([C@H](OP(=O)(O)O)C(F)(F)F)O2)cc1F [Compound 4, 5′(S)-CF3 FdUMP]
1240

----------
experimental target: recombinant human thymidylate synthase (hTS) (Homo sapiens, UniProt P04818)
Construct: His tag (N)
procedure details: cell-free human thymidylate synthase (hTS) inhibition assay
test context: 0.84 μM hTS, 50 μM dUMP, 250 μM mTHF, DHF formation at 340 nm, room temperature, pH 7.5
quantity measured: IC50

Answered examples (2):
C[C@H](OP(=O)(O)O)[C@H]1O[C@@H](n2cc(F)c(=O)[nH]c2=O)C[C@@H]1O [Compound 2, 5′(S)-CH3 FdUMP]: > 20 µM
O=c1[nH]c(=O)n([C@H]2C[C@H](O)[C@@H]([C@@H](OP(=O)(O)O)C(F)(F)F)O2)cc1F [Compound 5, 5′(R)-CF3 FdUMP]: > 20 µM

Now let's try a different one.
Request: IC50, test system recombinant human thymidylate synthase (hTS) (Homo sapiens, UniProt P04818), entry CC(C)(OP(=O)(O)O)[C@H]1O[C@@H](n2cc(F)c(=O)[nH]c2=O)C[C@@H]1O
> 20 µM

Values from paper PMC10186355
